Task for the reader: assign each of the following compounds its reported IC50.
tested on: Hek293 WFS1 over-expressor; assay: In vitro cell viability (CellTiter-Glo), Hek293 WFS1 over-expressor; assay type: cell-based; settings: Homo sapiens, HEK293, Hek293 WFS1 over-expressing cells; read-out: Hek293 WFS1 viability

Before answering, review these 8 worked examples.
Cc1cnc(C(F)(F)F)nc1-n1cc(CNc2ncc3c(n2)N(C)[C@@H](C)C(=O)N3)cn1 : 600 to 3000 nM
Cc1nc(NCc2cnn(C[C@H](C)c3ccc(F)cc3)c2)nc2c1NC(=O)[C@H](C)N2C : 60 to 600 nM
Cc1ncc(Cn2cc(CNc3nc(C)c4c(n3)N(C)[C@@H](C)C(=O)N4)cn2)cn1 : ≥ 3000 nM
Cc1nc(NCc2cnn(Cc3ccc(C(F)(F)F)nc3[C@@H](C)O)c2)nc2c1NC(=O)[C@H](C)N2C (single isomer, unassigned) : 60 to 600 nM
CC[C@H]1C(=O)Nc2cnc(NCc3cnn(Cc4ccc(F)cc4)c3)nc2N1C : 60 to 600 nM
Cc1nc(NCc2cnn(Cc3ccc(C(F)(F)F)cc3)c2)nc2c1NC(=O)[C@H](C)N2C : < 60 nM
Cc1nc(N[C@H]2C[C@@H](COc3ccc(C(F)(F)F)cn3)C2)nc2c1NC(=O)[C@H](C)N2C : < 60 nM
Cc1nc(NCc2cnn(Cc3ccc(F)nc3)c2)nc2c1NC(=O)[C@H](C(C)C)N2C : < 60 nM

Provide each entry's IC50 from the list below.
1. Cc1nc(N[C@H]2C[C@H](Oc3ccc(F)cc3)C2)nc2c1N(C)C(=O)[C@H](C)N2C
2. Cc1cc(F)ncc1Cn1cc(CNc2nc(C)c3c(n2)N(C)[C@@H](C(C)C)C(=O)N3)cn1
3. Cc1nc(NCc2cnn([C@H]3CCN(C4CCC(F)(F)CC4)C3)c2)nc2c1NC(=O)[C@H](C)N2C

[out]
1. 60 to 600 nM
2. < 60 nM
3. 60 to 600 nM

Batch request: IC50 for each of the following compounds.
1. Cc1nc(N[C@H]2C[C@@H](COc3cc(F)c(F)c(F)c3)C2)nc2c1NC(=O)[C@H](C)N2C
2. Cc1nn(C)cc1Cn1cc(CNc2nc(C)c3c(n2)N(C)[C@@H](C)C(=O)N3)cn1
3. Cc1nc(NCc2cnn([C@@H]3C[C@@H]3c3ccc(F)cc3)c2)nc2c1NC(=O)[C@H](C)N2C

[out]
["< 60 nM", "≥ 3000 nM", "< 60 nM"]

These measurements were taken from patent US20230312587A1.
